# Target Or System: HLA-A*26:01
# Protocol Summary: IEDB peptide-MHC binding, purified MHC/direct/fluorescence; filed as Kd, often an IC50 or EC50 that approximates it; bounds were set here for any values at or beyond the usual limits of such assays
# Experimental Setup: source organism: Mammarenavirus amapariense

Residue Codes	Measurement Unit	Kd
EKPGNRNPY	nM	2780

###

# Target Or System: HLA-B*18:01
# Protocol Summary: IEDB peptide-MHC binding, purified MHC/competitive/fluorescence; bounds were set here for any values at or beyond the usual limits of such assays
# Experimental Setup: source organism: Homo sapiens
pIC50: −log10 of the molar value.

Residue Codes	pIC50
ELFARSSDPR	≤ 4.70
RQSSGSSSSGF	≤ 4.70
LVTMGTGTFGR	≤ 4.70

###

# Target Or System: HLA-A*02:12
# Protocol Summary: IEDB peptide-MHC binding, purified MHC/direct/fluorescence; filed as Kd, often an IC50 or EC50 that approximates it; bounds were set here for any values at or beyond the usual limits of such assays
# Experimental Setup: source organism: Orthohantavirus tulaense
pKd: −log10 of the molar value.

Residue Codes	Target Or System	pKd
VVDALRNIY	HLA-A*02:12	≤ 4.70

###

# Target Or System: HLA-A*31:01
# Protocol Summary: IEDB peptide-MHC binding, purified MHC/direct/fluorescence; filed as Kd, often an IC50 or EC50 that approximates it; bounds were set here for any values at or beyond the usual limits of such assays
# Experimental Setup: source organism: Mycobacterium tuberculosis variant bovis

Residue Codes	Kd
TPREAPYEL	≥ 20 µM

###

# Target Or System: HLA-A*69:01
# Protocol Summary: IEDB peptide-MHC binding, purified MHC/direct/fluorescence; filed as Kd, often an IC50 or EC50 that approximates it; bounds were set here for any values at or beyond the usual limits of such assays
# Experimental Setup: source organism: Giardia lamblia ATCC 50803
Test Readout: Kd (nM)

Residue Codes	Result Value
VAAKGAPAL	67.7

###

# Target Or System: HLA-A*02:12
# Protocol Summary: IEDB peptide-MHC binding, purified MHC/competitive/fluorescence; filed as Kd, often an IC50 or EC50 that approximates it; bounds were set here for any values at or beyond the usual limits of such assays
# Experimental Setup: source organism: Desulfatibacillum alkenivorans AK-01
Test Readout: Kd (nM)

Residue Codes	Target Or System	Measurement Unit	Result Value
KLGKAGYVV	HLA-A*02:12	nM	23.5

###

# Target Or System: HLA-B*57:01
# Protocol Summary: IEDB peptide-MHC binding, purified MHC/direct/fluorescence; filed as Kd, often an IC50 or EC50 that approximates it; bounds were set here for any values at or beyond the usual limits of such assays
# Experimental Setup: source organism: Salmonella enterica
pKd: −log10 of the molar value.

Residue Codes	pKd
NVHRSQFAQ	≤ 4.70

###

# Target Or System: HLA-A*23:01
# Protocol Summary: IEDB peptide-MHC binding, purified MHC/competitive/fluorescence; filed as Kd, often an IC50 or EC50 that approximates it; bounds were set here for any values at or beyond the usual limits of such assays
# Experimental Setup: source organism: Listeria welshimeri serovar 6b str. SLCC5334
pKd: −log10 of the molar value.

Residue Codes	pKd
ELYENKPDV	≤ 4.70

###

# Target Or System: HLA-B*18:01
# Protocol Summary: IEDB peptide-MHC binding, purified MHC/direct/fluorescence; filed as Kd, often an IC50 or EC50 that approximates it; bounds were set here for any values at or beyond the usual limits of such assays
# Experimental Setup: source organism: Yersinia enterocolitica subsp. enterocolitica 8081

Residue Codes	Target Or System	Kd
KSRQGDTKV	HLA-B*18:01	≥ 20 µM

###

# Target Or System: HLA-A*23:01
# Protocol Summary: IEDB peptide-MHC binding, purified MHC/competitive/radioactivity; filed as Kd, often an IC50 or EC50 that approximates it; bounds were set here for any values at or beyond the usual limits of such assays
# Experimental Setup: source organism: Lassa virus Josiah

Residue Codes	Target Or System	Kd
YDHALMSII	HLA-A*23:01	7.73 µM
YLISIFLHL	HLA-A*23:01	0.000422 µM

###

# Target Or System: HLA-B*18:01
# Protocol Summary: IEDB peptide-MHC binding, purified MHC/direct/fluorescence; filed as Kd, often an IC50 or EC50 that approximates it; bounds were set here for any values at or beyond the usual limits of such assays
# Experimental Setup: source organism: Burkholderia ambifaria AMMD
pKd: −log10 of the molar value.

Residue Codes	pKd
AELHAKGAY	5.95

###

# Target Or System: HLA-A*02:03
# Protocol Summary: IEDB peptide-MHC binding, purified MHC/competitive/radioactivity; filed as Kd, often an IC50 or EC50 that approximates it; bounds were set here for any values at or beyond the usual limits of such assays
# Experimental Setup: source organism: Hepacivirus hominis

Residue Codes	Kd [nM]
VLSDFRTWL	7.18

###

# Target Or System: HLA-A*02:16
# Protocol Summary: IEDB peptide-MHC binding, purified MHC/direct/fluorescence; filed as Kd, often an IC50 or EC50 that approximates it; bounds were set here for any values at or beyond the usual limits of such assays
# Experimental Setup: source organism: Yersinia enterocolitica subsp. enterocolitica 8081

Residue Codes	Kd
KSRQGDTKV	≥ 20 µM

###

# Target Or System: HLA-A*26:01
# Protocol Summary: IEDB peptide-MHC binding, purified MHC/competitive/fluorescence; filed as Kd, often an IC50 or EC50 that approximates it; bounds were set here for any values at or beyond the usual limits of such assays
# Experimental Setup: source organism: Bacillus cereus G9241
pKd: −log10 of the molar value.

Residue Codes	pKd
DEEAINLFH	≤ 4.70

###

# Target Or System: HLA-B*08:01
# Protocol Summary: IEDB peptide-MHC binding, purified MHC/competitive/radioactivity; filed as Kd, often an IC50 or EC50 that approximates it; bounds were set here for any values at or beyond the usual limits of such assays
# Experimental Setup: source organism: Dengue virus 1 Brazil/97-11/1997
Reported Kd values follow for various sequences

Residue Codes	Kd [nM]
NRRKRSVTM	6.72
LMTGTLAVFL	1700

###

# Target Or System: HLA-B*15:01
# Protocol Summary: IEDB peptide-MHC binding, purified MHC/direct/fluorescence; filed as Kd, often an IC50 or EC50 that approximates it; bounds were set here for any values at or beyond the usual limits of such assays
# Experimental Setup: source organism: Influenza A virus (A/Wisconsin/4755/1994(H1N1))
pKd: −log10 of the molar value.
Test Readout: pKd

Residue Codes	Test Readout	Result Value
YRYTYRCHR	pKd	≤ 4.70

###

# Target Or System: HLA-B*18:01
# Protocol Summary: IEDB peptide-MHC binding, purified MHC/competitive/fluorescence; filed as Kd, often an IC50 or EC50 that approximates it; bounds were set here for any values at or beyond the usual limits of such assays
# Experimental Setup: source organism: Brucella suis 1330
pKd: −log10 of the molar value.

Residue Codes	pKd
TEWPQLKVA	7.47

###

Reported IC50 values follow for various sequences
# Target Or System: HLA-A*11:01
# Protocol Summary: IEDB peptide-MHC binding, purified MHC/competitive/fluorescence; bounds were set here for any values at or beyond the usual limits of such assays
# Experimental Setup: source organism: Zaire ebolavirus
Test Readout: IC50 (µM)

Residue Codes	Result Modifier	Result Value
WPVMNHKNK	≥	185
STSPRMLTP	=	44.1
MVIFRLMRT	≥	177
VIFRLMRTN	≥	90.6
FTVVSNGAK	=	1.51
LLPAVSSGK	=	3.64
YKLDISEAT	≥	139
VTLDGQQFY	=	4.92
VTGILQLPR	=	0.36

###

# Target Or System: HLA-B*15:01
# Protocol Summary: IEDB peptide-MHC binding, purified MHC/direct/fluorescence; filed as Kd, often an IC50 or EC50 that approximates it; bounds were set here for any values at or beyond the usual limits of such assays
# Experimental Setup: source organism: Haemophilus influenzae
Test Readout: Kd (nM)

Residue Codes	Result Value
SQKHFDTWW	473

###

# Target Or System: HLA-A*68:02
# Protocol Summary: IEDB peptide-MHC binding, purified MHC/competitive/fluorescence; filed as Kd, often an IC50 or EC50 that approximates it; bounds were set here for any values at or beyond the usual limits of such assays
# Experimental Setup: source organism: Bacillus cereus G9241
Test Readout: Kd

Residue Codes	Test Readout	Result Value
DEEAINLFH	Kd	≥ 20 µM

###

# Target Or System: HLA-A*30:01
# Protocol Summary: IEDB peptide-MHC binding, purified MHC/competitive/radioactivity; filed as Kd, often an IC50 or EC50 that approximates it; bounds were set here for any values at or beyond the usual limits of such assays
# Experimental Setup: source organism: Dengue virus 1 Brazil/97-11/1997

Residue Codes	Kd, nM
STRVGMGEA	5.02

###

# Target Or System: HLA-A*68:02
# Protocol Summary: IEDB peptide-MHC binding, purified MHC/competitive/radioactivity; filed as Kd, often an IC50 or EC50 that approximates it; bounds were set here for any values at or beyond the usual limits of such assays
# Experimental Setup: source organism: Dengue virus 3 Martinique/1243/1999
pKd: −log10 of the molar value.
Test Readout: pKd

Residue Codes	Target Or System	Result Value
FTILALFLA	HLA-A*68:02	7.45
